Values from patent US20190275012A9

Listing of recorded IC50 by entry.
target: full length MALT1 enzyme (Homo sapiens)

Below: 6 compounds and their reported IC50.
COc1nc(-n2nccn2)c(C(F)(F)F)cc1NC(=O)Nc1cnc2sc(C)nc2c1C(C)OC (single isomer, unassigned) [Compound 88b]: 1 to 50 nM
COC(C)c1c(NC(=O)Nc2ccc(-n3ccnn3)c(Cl)c2)cnc2sc(C)nc12 (single isomer, unassigned) [Compound 198b]: 1 to 50 nM
CCC(OC)c1c(NC(=O)Nc2ccc(-n3nccn3)c(Cl)c2)cnc2sc(C)nc12 (single isomer, unassigned) [Compound 126b]: 1 to 50 nM
COc1ccc(Cl)cc1NC(=O)Nc1cnc2sc(C)nc2c1C(C)OC (single isomer, unassigned) [Compound 128b]: 51 to 100 nM
COc1nc(-n2nccn2)c(Cl)cc1NC(=O)Nc1cnc2sc(C)nc2c1C(OC)C(C)C (single isomer, unassigned) [Compound 81b]: 1 to 50 nM
COC(c1c(NC(=O)Nc2ccc(-n3nccn3)c(Cl)c2)cnc2sc(C)nc12)C(C)C (single isomer, unassigned) [Compound 125b]: 1 to 50 nM

From here, focus on the item given below.
Report IC50 for CCOC(C)c1c(NC(=O)Nc2cnc(-n3nccn3)c(C(F)(F)F)c2)cnc2sc(C)nc12 (single isomer, unassigned) [Compound 165b] please. 1 to 50 nM

====

IC50, full length MALT1 enzyme (Homo sapiens, UniProt Q9UDY8), per-entry values.

Solved cases (3 shown):
Cc1nc2c(C3CC3)c(NC(=O)Nc3cnc(OCCC4CCN(C)CC4)c(Cl)c3)cnc2s1: 51 to 100 nM
CCC(C)c1c(NC(=O)Nc2cnc(-n3nccn3)c(Cl)c2)cnc2sc(C)nc12 (single isomer, unassigned) [Compound 157b]: 1 to 50 nM
Cc1nc2c(C(C)O)c(NC(=O)Nc3cnc(-n4nccn4)c(C(F)(F)F)c3)cnc2s1 (single isomer, unassigned) [Compound 71b]: 1 to 50 nM

Now for another entry.
Tell me the measured IC50 of COC(c1c(NC(=O)Nc2ccc(-n3nccn3)c(Cl)c2)cnc2sc(C)nc12)C1CC1 (single isomer, unassigned) [Compound 144b] , please. 1 to 50 nM

====

Examples of compounds with documented IC50 follow.
Biological target: full length MALT1 enzyme (Homo sapiens)
Sequence (Q9UDY8 1-824): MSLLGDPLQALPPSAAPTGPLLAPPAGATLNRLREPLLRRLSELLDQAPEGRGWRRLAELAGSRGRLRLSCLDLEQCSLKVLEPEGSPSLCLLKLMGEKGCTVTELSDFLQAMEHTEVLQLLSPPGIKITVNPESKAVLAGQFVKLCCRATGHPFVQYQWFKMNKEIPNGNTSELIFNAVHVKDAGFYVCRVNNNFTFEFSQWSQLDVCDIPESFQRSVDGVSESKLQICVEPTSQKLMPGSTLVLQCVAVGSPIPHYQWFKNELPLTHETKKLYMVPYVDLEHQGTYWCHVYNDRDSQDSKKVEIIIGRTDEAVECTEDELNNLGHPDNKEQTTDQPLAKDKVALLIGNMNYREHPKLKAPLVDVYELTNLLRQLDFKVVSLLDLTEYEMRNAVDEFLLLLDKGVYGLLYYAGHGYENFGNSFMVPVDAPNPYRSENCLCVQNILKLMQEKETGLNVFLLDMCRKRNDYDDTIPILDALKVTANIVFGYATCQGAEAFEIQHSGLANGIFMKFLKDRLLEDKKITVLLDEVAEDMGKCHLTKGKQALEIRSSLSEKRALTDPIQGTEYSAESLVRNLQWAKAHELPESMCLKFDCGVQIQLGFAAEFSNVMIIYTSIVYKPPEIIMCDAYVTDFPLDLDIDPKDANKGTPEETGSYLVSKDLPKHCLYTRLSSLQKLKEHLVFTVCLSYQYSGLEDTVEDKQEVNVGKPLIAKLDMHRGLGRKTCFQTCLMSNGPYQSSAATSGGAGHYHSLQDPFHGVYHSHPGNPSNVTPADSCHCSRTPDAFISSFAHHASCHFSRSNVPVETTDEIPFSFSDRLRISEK

Worked cases, answers included:
COC(c1ccccc1)c1c(NC(=O)Nc2cnc(-n3nccn3)c(Cl)c2)cnc2sc(C)nc12 (single isomer, unassigned) [Compound 84b]: 1 to 50 nM
COc1ncc(NC(=O)Nc2cnc3sc(C)nc3c2N2CCOCC2)cc1Cl [Compound 112]: 51 to 100 nM
COc1ncc(NC(=O)Nc2cnc3sc(C)nc3c2N(C)C)cc1Cl [Compound 110]: 51 to 100 nM
COC(c1c(NC(=O)Nc2cnc(-n3nccn3)c(C(F)(F)F)c2)cnc2sc(C)nc12)C(C)C (single isomer, unassigned) [Compound 78b]: 1 to 50 nM
CCC(OC)c1c(NC(=O)Nc2ccc(-n3nccn3)c(C(F)(F)F)c2)cnc2sc(C)nc12 (single isomer, unassigned) [Compound 147b]: 1 to 50 nM
CCc1nc2c(C(C)OC)c(NC(=O)Nc3ccc(-n4nccn4)c(Cl)c3)cnc2s1 (single isomer, unassigned) [Compound 233b]: 1 to 50 nM
COc1cc(-n2nccn2)c(Cl)cc1NC(=O)Nc1cnc2sc(C)nc2c1C(C)OC (single isomer, unassigned) [Compound 131b]: 1 to 50 nM
Cc1nc2c(N3CCOCC3)c(NC(=O)Nc3cnc(-n4nccn4)c(Cl)c3)cnc2s1 [Compound 28]: 1 to 50 nM

I'd like to know its IC50. The compound in question is COCCN(c1c(NC(=O)Nc2cnc(-n3nccn3)c(Cl)c2)cnc2sc(C)nc12)C1CC1 [Compound 49] 1 to 50 nM

Now this one: COC(C)(c1c(NC(=O)Nc2cnc(-n3nccn3)c(C(F)(F)F)c2)cnc2sc(C)nc12)C1CC1 (single isomer, unassigned) [Compound 93b] 1 to 50 nM

What do you have for COCC1(c2c(NC(=O)Nc3cnc(-n4nccn4)c(C(F)(F)F)c3)cnc3sc(C)nc23)CC1 [Compound 102] ? 1 to 50 nM

Param item: Cc1nc2c(C3CC3)c(NC(=O)Nc3cncc(C#N)c3)cnc2s1 [Compound 10] 101 to 500 nM

Field entry: CCC(c1c(NC(=O)Nc2cnc(-n3nccn3)c(C(F)(F)F)c2)cnc2sc(C)nc12)N(C)C (single isomer, unassigned) [Compound 75b] 51 to 100 nM
